Let's look at some IC50 data for human Bub1 (Homo sapiens (Human), UniProt O43683) that I collected from the literature.

Consider the worked cases shown below.
Data request: For human Bub1 (Homo sapiens (Human), UniProt O43683), provide IC50 of COc1ccc(NC(=O)c2c(C)nsc2Nc2cnc3cccc(C)c3n2)cn1 please.
Data returned: > 20 µM

Data request: For human Bub1 (Homo sapiens (Human), UniProt O43683), provide IC50 of CCc1ccccc1NC(=O)c1c(C)nsc1Nc1ccc(C#N)cn1 please.
Data returned: > 20 µM

Data request: For human Bub1 (Homo sapiens (Human), UniProt O43683), provide IC50 of CCOC(=O)c1cnc(Nc2snc(C)c2C(=O)Nc2ccc(F)c(F)c2)o1 please.
Data returned: > 20 µM

Data request: For human Bub1 (Homo sapiens (Human), UniProt O43683), provide IC50 of Cc1nsc(Nc2cnc(C(F)(F)F)cn2)c1C(=O)Nc1ccc(O[C@@H]2CCN(CCC(F)(F)F)C[C@H]2F)nc1 please.
Data returned: > 20 µM

Data request: For human Bub1 (Homo sapiens (Human), UniProt O43683), provide IC50 of CCN1CC[C@H](Oc2ccc(NC(=O)c3c(C)nsc3Nc3cnc(C(F)(F)F)cn3)cn2)[C@H](F)C1 please.
Data returned: > 20 µM

***
Data request: For human Bub1 (Homo sapiens (Human), UniProt O43683), provide IC50 of CCOC(=O)c1cnn2ccc(Nc3snc(C)c3C(=O)Nc3ccc(F)c(F)c3)nc12 please.
Data returned: > 20 µM

Data request: For human Bub1 (Homo sapiens (Human), UniProt O43683), provide IC50 of Cc1nsc(Nc2cncc(C(F)(F)F)n2)c1C(=O)Nc1ccc(C(=O)NCCN2CCCC(F)C2)cc1 (centres unmarked) please.
Data returned: > 20 µM

Data request: For human Bub1 (Homo sapiens (Human), UniProt O43683), provide IC50 of Cc1nsc(Nc2cncc(C(F)(F)F)n2)c1C(=O)Nc1ccc(OCC2CCCN(C(=O)OC(C)(C)C)C2)nc1 (centres unmarked) please.
Data returned: > 20 µM

Data request: For human Bub1 (Homo sapiens (Human), UniProt O43683), provide IC50 of Cc1nsc(Nc2cnc(C(F)(F)F)cn2)c1C(=O)Nc1ccc(OC2CCCN(C(CF)CF)C2)nc1 (centres unmarked) please.
Data returned: ≥ 20 µM

Data request: For human Bub1 (Homo sapiens (Human), UniProt O43683), provide IC50 of CCOc1cc(F)c(Cn2nc(-c3nccc(Nc4ccncn4)n3)c(C)c2C2CC2)c(F)c1 please.
Data returned: 0.017 µM

Data request: For human Bub1 (Homo sapiens (Human), UniProt O43683), provide IC50 of CNS(=O)(=O)c1ccc(NC(=O)c2c(C)nsc2Nc2cc(C#N)ccn2)cc1 please.
Data returned: > 20 µM

Data request: For human Bub1 (Homo sapiens (Human), UniProt O43683), provide IC50 of Cc1nsc(Nc2cnc(C(F)(F)F)cn2)c1C(=O)Nc1ccc(O[C@@H]2CCCN(CCC(F)(F)F)C2)nc1 please.
Data returned: > 20 µM

Data request: For human Bub1 (Homo sapiens (Human), UniProt O43683), provide IC50 of Cc1nsc(Nc2cnc(C(F)(F)F)cn2)c1C(=O)Nc1ccc(OCCN2CCC(F)(F)CC2)nc1 please.
Data returned: > 20 µM

Data request: For human Bub1 (Homo sapiens (Human), UniProt O43683), provide IC50 of Cc1nsc(Nc2cncc(-n3cccn3)n2)c1C(=O)Nc1ccc(Cl)c(F)c1 please.
Data returned: > 20 µM

Data request: For human Bub1 (Homo sapiens (Human), UniProt O43683), provide IC50 of Cc1nsc(Nc2cnc(C(F)(F)F)cn2)c1C(=O)Nc1ccc(F)c(OC2CCN(CC(F)(F)F)CC2)c1 please.
Data returned: > 20 µM

Data request: For human Bub1 (Homo sapiens (Human), UniProt O43683), provide IC50 of Cc1nsc(Nc2cnc(C(F)(F)F)cn2)c1C(=O)Nc1ccc(C(=O)N2CCN(CC(F)(F)F)CC2)cc1 please.
Data returned: > 20 µM

Data request: For human Bub1 (Homo sapiens (Human), UniProt O43683), provide IC50 of Cc1nsc(Nc2cncc(C(F)(F)F)n2)c1C(=O)Nc1ccc(OCCNC(=O)OC(C)(C)C)c(F)c1 please.
Data returned: > 20 µM

Data request: For human Bub1 (Homo sapiens (Human), UniProt O43683), provide IC50 of CCc1ccccc1NC(=O)c1c(C)nsc1Nc1nc2ccccc2s1 please.
Data returned: 8.59 µM

Data request: For human Bub1 (Homo sapiens (Human), UniProt O43683), provide IC50 of CCOc1cc(F)c(Cn2nc(-c3n[nH]c(Nc4ccncc4)n3)c(C)c2C2CC2)c(F)c1 please.
Data returned: 0.082 µM

Data request: For human Bub1 (Homo sapiens (Human), UniProt O43683), provide IC50 of COc1c(N)nc(-c2nn(Cc3ccccc3F)c3c2CCC3)nc1Nc1ccncc1 please.
Data returned: 0.09 µM
